- TARGET_OF_ASSAY: human GABAA α1β3γ2 receptor (Homo sapiens (Human), UniProt P14867+P18507)
- PROTOCOL_NOTES: Radioligand binding assay for γ2-containing GABAA subtypes, [3H]Flumazenil competition (α1β3γ2)
- CONDITION_DESCRIPTION: Ki α1β3γ2 (nM)/Ki α2β2γ1 (nM)
METRIC: γ2/γ1 Selectivity Ratio
Lab note: record the figure alone, no unit after it.

As a guide, the following entries are already answered.
[2H]C([2H])([2H])OC1CN(C(=O)c2nc3n(n2)-c2ccc(Cl)c(Cl)c2C(c2c(F)cccc2F)=N[C@H]3C)C1; 223.3
C[C@@H]1N=C(c2c(F)cccc2F)c2c(ccc(Cl)c2Cl)-n2cc(C#N)nc21; 61.8
C[C@@H]1N=C(c2c(F)cccc2F)c2c(ccc(Cl)c2Cl)-n2nc(C(=O)N3CC[C@H](F)C3)nc21; 68.5
CC(=O)NCc1nc2n(n1)-c1ccc(Cl)c(Cl)c1C(c1c(F)cccc1F)=N[C@H]2C; 96.5
C[C@@H]1N=C(c2c(F)cccc2F)c2c(ccc(C(F)(F)F)c2Cl)-n2nc(NC(=O)N3C4COCC3C4)nc21 (single isomer, unassigned); 114.5
Cc1nc2n(n1)-c1ccc(Cl)c(Cl)c1C(c1ncccc1F)=N[C@H]2C; 34.4
C[C@@H]1N=C(c2ncccc2F)c2c(ccc(C(F)(F)F)c2Cl)-n2cc(C(=O)NCCO)nc21; 218.4
Cc1cnc2n1-c1ccc(C(F)(F)F)c(Cl)c1C(c1ncccc1F)=N[C@H]2C; 163.5
C[C@@H]1N=C(c2ncccc2F)c2c(ccc(C(F)(F)F)c2Cl)-n2nc(C(=O)NCCO)nc21; 334.8
C[C@@H]1N=C(c2ncccc2F)c2c(ccc(Cl)c2Cl)-n2nc(C(=O)N3CC[C@H](F)C3)nc21; 76.8

stdin: Give the measured γ2/γ1 Selectivity Ratio of CC1CN(C(=O)c2cn3c(n2)[C@H](C)N=C(c2ncccc2F)c2c-3ccc(C(F)(F)F)c2Cl)C1 .
stdout: 134.0

stdin: Now give it for C[C@@H]1N=C(c2c(F)cccc2F)c2c(ccc(C(F)(F)F)c2Cl)-n2nc(C(=O)N3CCS(=O)(=O)CC3)nc21 too.
stdout: 325.5

stdin: Now give it for C[C@@H]1N=C(c2c(F)cccc2F)c2c(ccc(Cl)c2Cl)-n2nc(C(=O)NC3COC3)nc21 too.
stdout: 102.8

stdin: Now give it for COC1CN(C(=O)Nc2nc3n(n2)-c2ccc(C(F)(F)F)c(Cl)c2C(c2c(F)cccc2F)=N[C@H]3C)C1 too.
stdout: 96.5

stdin: Now give it for C[C@H](O)CNC(=O)c1cn2c(n1)[C@H](C)N=C(c1ncccc1F)c1c-2ccc(C(F)(F)F)c1Cl too.
stdout: 182.4

stdin: Now give it for C[C@@H]1N=C(c2ncccc2F)c2c(ccc(Cl)c2Cl)-n2nc(C(=O)N3CC4(CCCCO4)C3)nc21 too.
stdout: 228.3

stdin: Now give it for Cc1nc2n(n1)-c1ccc(C(F)(F)F)c(Cl)c1C(c1c(F)cccc1F)=N[C@H]2C too.
stdout: 109.1

---

- TARGET_OF_ASSAY: human GABAA α2β2γ1 receptor (Homo sapiens (Human), UniProt P47869+Q8N1C3)
- PROTOCOL_NOTES: Radioligand binding assay for γ1-containing GABAA subtypes, [3H]RO7239181 competition (α2β2γ1)
- CONDITION_DESCRIPTION: Ki h-GABAA α2β2γ1, [3H]RO7239181 competition binding, human GABAA α2β2γ1
Quick reference for Ki among some molecules
Give a bare numeral; the unit nM is implied.

As a guide, the following entries are already answered.
C[C@@H]1N=C(c2c(F)cccc2F)c2c(ccc(C(F)(F)F)c2Cl)-n2nc(C(=O)NCCF)nc21; 22.6
C[C@@H]1N=C(c2c(F)cccc2F)c2c(ccc(Cl)c2Cl)-n2cc(C(=O)N3CC(O)C3)nc21; 7.2
COCCNC(=O)c1nc2n(n1)-c1ccc(Cl)c(Cl)c1C(c1c(F)cccc1F)=N[C@H]2C; 3.9
Cc1cn2c(n1)[C@H](C)N=C(c1c(F)cccc1F)c1c-2ccc(C(F)(F)F)c1Cl; 10.2
C[C@H](O)CNC(=O)c1cn2c(n1)[C@H](C)N=C(c1ncccc1F)c1c-2ccc(C(F)(F)F)c1Cl; 49.7
COC1CN(C(=O)Nc2nc3n(n2)-c2ccc(C(F)(F)F)c(Cl)c2C(c2c(F)cccc2F)=N[C@H]3C)C1; 49.4

Kindly review the next molecule as well.
stdin: Give the measured Ki of C[C@@H]1N=C(c2c(F)cccc2F)c2c(ccc(C(F)(F)F)c2Cl)-n2nc(C(=O)NCCO)nc21 .
stdout: 14

---

- TARGET_OF_ASSAY: α2β2γ1 GABAA receptor subtype (Homo sapiens (Human), UniProt P47869+Q8N1C3)
- PROTOCOL_NOTES: Two-electrode voltage clamp electrophysiology in Xenopus oocytes expressing GABAA receptors (modulation of GABA EC20 current)
- Assay type: cell-based
- CONDITION_DESCRIPTION: % modulation of GABA EC20 = 100*(Fold increase-1); α2β2γ1 oocytes; compound at approx. 30-fold Ki
Quick reference for Efficacy (GABA)% among some compounds
Give a bare numeral; the unit % is implied.

As a guide, the following entries are already answered.
C[C@@H]1N=C(c2c(F)cccc2F)c2c(ccc(C(F)(F)F)c2Cl)-n2nc(C(=O)NCC#N)nc21 [Example 110]; 119
COC1CN(C(=O)c2nc3n(n2)-c2ccc(Cl)c(Cl)c2C(c2ncccc2F)=NC3)C1 [Example 62]; 93
COCCNC(=O)c1nc2n(n1)-c1ccc(Cl)c(Cl)c1C(c1c(F)cccc1F)=N[C@H]2C [Example 28]; 56
Fc1cccc(F)c1C1=NCc2nc(C(F)F)nn2-c2ccc(Cl)c(Cl)c21 [Example 33]; 56
CO[C@H]1CCN(C(=O)c2nc3n(n2)-c2ccc(Cl)c(Cl)c2C(c2ncccc2F)=N[C@H]3C)C1 [Example 89]; 113
C[C@@H]1N=C(c2ncccc2F)c2c(ccc(C(F)(F)F)c2Cl)-n2cc(C(=O)NCC(C)(C)O)nc21 [Example 159]; 217
C[C@H](O)CNC(=O)c1nc2n(n1)-c1ccc(Cl)c(Cl)c1C(c1c(F)cccc1F)=N[C@H]2C [Example 63]; 79
C[C@@H]1N=C(c2ncccc2F)c2c(ccc(C(F)(F)F)c2Cl)-n2cc(C(=O)N[C@H]3C[C@@H](O)C3)nc21 [Example 166]; 184

stdin: Give the measured Efficacy (GABA)% of [2H]C([2H])([2H])OC1CN(C(=O)c2nc3n(n2)-c2ccc(C(F)(F)F)c(Cl)c2C(c2ncccc2F)=N[C@H]3C)C1 [Example 104] .
stdout: 117

stdin: Now give it for C[C@@H]1N=C(c2c(F)cccc2F)c2c(ccc(C(F)(F)F)c2Cl)-n2c1nc1c2CCC1 [Example 133] too.
stdout: 41

stdin: Now give it for C[C@@H]1N=C(c2c(F)cccc2F)c2c(ccc(Cl)c2Cl)-n2nc(OC3COC3)nc21 [Example 92] too.
stdout: 44

stdin: Now give it for [2H]C([2H])([2H])NC(=O)c1nc2n(n1)-c1ccc(Cl)c(Cl)c1C(c1c(F)cccc1F)=NC2 [Example 7] too.
stdout: 68

stdin: Now give it for C[C@@H]1N=C(c2ncccc2F)c2c(ccc(Cl)c2Cl)-n2nc(C(=O)N3CC4(CCO4)C3)nc21 [Example 98] too.
stdout: 158

stdin: Now give it for Cc1cn2c(n1)[C@H](C)N=C(c1ncccc1F)c1c-2ccc(C(F)(F)F)c1Cl [Example 139] too.
stdout: 149

stdin: Now give it for Cc1c(C(=O)NCCO)nc2n1-c1ccc(C(F)(F)F)c(Cl)c1C(c1ncccc1F)=N[C@H]2C [Example 154] too.
stdout: 191

---

- TARGET_OF_ASSAY: human GABAA α2β2γ1 receptor (Homo sapiens (Human), UniProt P47869+Q8N1C3)
- PROTOCOL_NOTES: Radioligand binding assay for γ1-containing GABAA subtypes, [3H]RO7239181 competition (α2β2γ1)
- CONDITION_DESCRIPTION: Ki h-GABAA α2β2γ1, [3H]RO7239181 competition binding, human GABAA α2β2γ1
- Experimental: The affinity of compounds at GABAA γ1 subunit-containing receptors was measured by competition for [^3H]RO7239181 (67.3 Ci/mmol; Roche) binding to membranes from HEK293F cells (ThermoFisher R79007) expressing human (transiently transfected) receptors of composition α5β2γ1, α2β2γ1, α1β2γ1. […]
pKi: −log10 of the molar value.
Please note: 1.0 applies when pKi is 8 or greater, and 0.0 applies otherwise.

CNC(=O)c1cn2c(n1)CN=C(c1ncccc1F)c1c-2ccc(Cl)c1Cl; 0.0
Cc1cnc2n1-c1ccc(C(F)(F)F)c(Cl)c1C(c1ncccc1F)=N[C@H]2C; 0.0
COc1nc2n(n1)-c1ccc(Cl)c(Cl)c1C(c1c(F)cccc1F)=N[C@H]2C; 0.0

stdin: Answer whether pKi of C[C@@H]1N=C(c2c(F)cccc2F)c2c(ccc(C(F)(F)F)c2Cl)-n2nc(NC(=O)N3C4COCC3C4)nc21 (single isomer, unassigned) is greater than or equal to 8.
stdout: 0.0

stdin: Now give it for C[C@@H]1N=C(c2ncccc2F)c2c(ccc(Cl)c2Cl)-n2nc(C(=O)N3CC4(CCO4)C3)nc21 too.
stdout: 0.0

stdin: Now give it for C[C@@H]1N=C(c2c(F)cccc2F)c2c(ccc(Cl)c2Cl)-n2nc(C(=O)N3CC4(CCCO4)C3)nc21 too.
stdout: 1.0

stdin: Now give it for C[C@@H]1N=C(c2ncccc2F)c2c(ccc(C(F)(F)F)c2Cl)-n2c(CO)cnc21 too.
stdout: 0.0
